// sensor-assay potency score (higher = more potent) lookup, one value per entry
Target Entity: XCL2
Experimental Details: pooled miR-30 sensor sort-seq; sequence = guide strand
Settings: shRNA
Readout Type: sensor-assay potency score (higher = more potent)

           query_sequence  target_entity  recorded_number
0  ATAATCTCAGTCCATGAGGGTG           XCL2            -1.29
1  TATGTGAGACTTCACTCCCTAC           XCL2           -0.968
2  TCTTGATTCTGCTAACTGGCAG           XCL2           -0.712
3  TCTGCTAACTGGCAGTCGCTGG           XCL2            -0.99
4  TATAATCTCAGTCCATGAGGGT           XCL2           -0.365
5  CTTGATTCTGCTAACTGGCAGT           XCL2            -1.63

###

Target Entity: GALNT7
Experimental Details: pooled miR-30 sensor sort-seq; sequence = guide strand
Settings: shRNA
sequences and their reported sensor-assay potency score (higher = more potent)
Readout Type: sensor-assay potency score (higher = more potent)

>>> print(df.to_string())
           query_sequence  result
0  TAGACTCTAAGTCCACTTCTAC  -0.661
1  ATTGACATCTCTGTCTTCCCTC     0.3
2  TTAAATTTTAAAAACGTGCAGA  -0.271
3  TTCTTTATTACTGAAATCGTCA  -0.232

###

Item-by-item account of sensor-assay potency score (higher = more potent)
Target Entity: PML
Experimental Details: pooled miR-30 sensor sort-seq; sequence = guide strand
Settings: shRNA
Readout Type: sensor-assay potency score (higher = more potent)

           query_sequence  target_entity  recorded_number
0  TTCATTGTCAATCTTGAGGTCA            PML            0.253
1  TATCTTTCTACATGGATGGAGT            PML           -0.448
2  TCGTGCTTGAGGAACCACTGGT            PML           0.0745
3  TTCGGCATCTGAGTCTTCCGAG            PML            0.322
4  AAGTCTGAGAGTCACCTGCTGT            PML           -0.995

###

Target Entity: KCNJ11
Experimental Details: pooled miR-30 sensor sort-seq; sequence = guide strand
Settings: shRNA
Give met when the value for sensor-assay potency score (higher = more potent) is at least -0.8. Give not met when it is less.

>>> print(df.to_string())
           query_sequence  target_entity  class_label
0  ATCAATGACATGGTAGATGATC         KCNJ11      not met
1  TCATCGGCCAGGTAGGAGGTGC         KCNJ11          met
2  TTGGAGTAGTCCACAGAGTAAC         KCNJ11      not met
3  TTTGACGGTGTTGCCAAACTTG         KCNJ11          met
4  TTGCGTACCACCTGCATGTGGA         KCNJ11          met
5  TACAATGGGCACAAAGCGCTGG         KCNJ11          met
6  TTGACGGTGTTGCCAAACTTGG         KCNJ11      not met

###

# Lookup of reported sensor-assay potency score (higher = more potent) keyed by entry
Target Entity: PCTP
Experimental Details: pooled miR-30 sensor sort-seq; sequence = guide strand
Settings: shRNA
Readout Type: sensor-assay potency score (higher = more potent)

In [3]: df
Out[3]:
           query_sequence  result
0  TAACATACTGGTCCCATTGTTT  -0.841
1  TAGAGTTCTTTAACATACTGGT   0.218
2  TTCATTATAGAACACACTTTTC   -1.43
3  TTGCACAATGGAATGATCGTGT   0.345
4  TTGAACTGTAGAAGAAGGCAGC  -0.297
5  TTCTTTAACATACTGGTCCCAT  -0.412

###

Target Entity: APTX
Experimental Details: pooled miR-30 sensor sort-seq; sequence = guide strand
Settings: shRNA
sensor-assay potency score (higher = more potent) reference
Readout Type: sensor-assay potency score (higher = more potent)

           query_sequence  target_entity  recorded_number
0  TTGCTGTCGAGAACATTTCTTA           APTX           -0.631
1  TCAGTGATCTTGGTCTCTGGGC           APTX           -0.249
2  TTTCTTATCAGTGATCTTGGTC           APTX           -0.281
3  TTATCAGTGATCTTGGTCTCTG           APTX           -0.647

###

Target Entity: KLF14
Experimental Details: pooled miR-30 sensor sort-seq; sequence = guide strand
Settings: shRNA
Each entry below carries its reported sensor-assay potency score (higher = more potent).
Readout Type: sensor-assay potency score (higher = more potent)

In [3]: df
Out[3]:
           query_sequence  target_entity  recorded_number
0  TATCTGGATGATAGGTTGGGTG          KLF14            -1.33
1  TTCTTGTCGCAGTCGAGCCAGT          KLF14            -1.02
2  TCGCAGTCGAGCCAGTCGCAGG          KLF14            -1.84
3  TAAACTTCTTGTCGCAGTCGAG          KLF14           -0.734
4  TAGGCTTTGGTGCAGCCCGGGA          KLF14            -1.12
5  TTGGTCAGGTGGTCGCTCCGGG          KLF14           -0.324
6  TTGAGGTGCGACGACTTGTAAT          KLF14            -1.63
7  ATAGGCTTTGGTGCAGCCCGGG          KLF14           -0.764

###

Target Entity: SYBU
Experimental Details: pooled miR-30 sensor sort-seq; sequence = guide strand
Settings: shRNA
sensor-assay potency score (higher = more potent) of -0.2 or higher: fulfilled. Under -0.2: not fulfilled.

In [3]: df
Out[3]:
           query_sequence    class_label
0  TTAAATGGAAACACTAATCTTT      fulfilled
1  TAAAATCAGCTTCACTACCTGG  not fulfilled
2  TTCGATGACCTGTTTGAGCTGT      fulfilled
3  TCATCGAACAAATCTGTGCTGT  not fulfilled
4  TTGTAGGAGCCTGAGTTGCTAC  not fulfilled
5  TTGATTCCTTCTTATATCGAGA  not fulfilled
6  TTCTGCATCCACATTGGCGTAG  not fulfilled
7  TTTGATTCCTTCTTATATCGAG      fulfilled
8  TAACAGTTTAAGAACAAACAAG  not fulfilled
9  TCACCAACCATTCCAATCGTGC  not fulfilled

###

Target Entity: TMEFF2
Experimental Details: pooled miR-30 sensor sort-seq; sequence = guide strand
Settings: shRNA
Readings of sensor-assay potency score (higher = more potent) for the listed sequences
Readout Type: sensor-assay potency score (higher = more potent)

           query_sequence  recorded_number
0  TAGAACACTGTAGTCCTTTTTT            -1.55
1  TACAGGACCGGGAACAACGTAT           -0.637
2  TCAATATTACACACACACCAGA            -1.06
3  TTGTCTGAACTGTAGTGCCCTG            -0.73
4  TAGATCTCTTGTCTTATTCTTT            -0.31
5  TAGAATGCTCACACTTCCCATG           -0.607
6  TTTTTTCACAGTGTTGTCCAGT           -0.255

###

Target Entity: SLC12A6
Experimental Details: pooled miR-30 sensor sort-seq; sequence = guide strand
Settings: shRNA
sensor-assay potency score (higher = more potent) by entry:
Readout Type: sensor-assay potency score (higher = more potent)

           query_sequence  recorded_number
0  TTCTTTAGTAAGATGAAGCTGT            0.156
1  TAAGTCTTCATCTAGTTTCAGT           -0.702
2  TTACTCGGGAACTAGATCGAGA           -0.428
3  TTTTTGAAGAAGTAGAGGCTGC            0.521
4  TAGCTTGTAGCAGCCTCGGTGC            -1.11

###

Target Entity: C7orf69
Experimental Details: pooled miR-30 sensor sort-seq; sequence = guide strand
Settings: shRNA
Readout Type: sensor-assay potency score (higher = more potent)

>>> print(df.to_string())
           query_sequence  target_entity  recorded_number
0  ATAGTTTGACAAAACTTGTAGA        C7orf69            -0.39
1  AAAACTTGTAGAGAAGTCCAGA        C7orf69           -0.425
2  TGATAGTTTGACAAAACTTGTA        C7orf69           -0.512
3  TTGTAGAGAAGTCCAGAGTTAA        C7orf69            -1.47
4  TTGATAGTTTGACAAAACTTGT        C7orf69             -1.4
5  TTGCTCTGCATTTGATAGTTTG        C7orf69            -1.46
